assay: NCI Yeast Anticancer Drug Screen. Data for the mlh1 rad18 strain (AID 175); conditions: S. cerevisiae mlh1 rad18 strain growth inhibition; at 50.0 µM (retest, dose inferred, filed as 5.0); stronger effect = higher value
About 79,000 compounds went through this panel and 15% of them were active in at least one assay; those are over-represented in the sample as a whole.
measurement kind: growth inhibition (%)
Numbers only, in %.

Reference set, count: 10
* Cc1ccc(N=Nc2ccc(O)c(=O)cc2)cc1 | 90
* CCCCCCC(O)CNCc1ccnc2ccc(OC)cc12 (configuration not stated) | 61
* Cc1cccc[n+]1C1CCc2c(ccc3ccccc23)C1=O (configuration not stated) | 73
* Cc1cc(C)c(NC(=S)NC(=O)c2ccccc2)cc1C | -12
* CC(=O)OCC1OC2OC(=O)NC2C(OC(C)=O)C1OC(C)=O (configuration not stated) | 5
* CC[N+]1(C)CCC(O)(c2ccc(OC)cc2)C(C(=O)c2ccc(OC)cc2)C1 (configuration not stated) | 29
* COc1cc(C2SCC(=O)N2c2ccc(-c3ccc(-n4c(-c5ccccc5)nc5ccccc5c4=O)cc3)cc2)ccc1O (configuration not stated) | 76
* CC1OC(O[C@H]2/C=C/C=C/C=C/C=C/C=C/C=C/C=C/[C@H](C)[C@@H](O)[C@@H](C)[C@H](C)OC(=O)C[C@H](O)C[C@H](O)CC[C@@H](O)[C@H](O)C[C@H](O)C[C@]3(O)C[C@H](O)[C@@H](C(=O)O)[C@H](C2)O3)C(O)C(N)C1O (some centres not stated) | 99
* O=C1c2ccccc2C(=O)N1CCCC(=O)n1cc(F)c(=O)[nH]c1=O | 68
* OCc1ccccc1Cc1ccccc1 | 63

For each of the items listed, what is its growth inhibition?
1. O=[N+]([O-])/C=C/c1cc(Cl)c(/C=C/[N+](=O)[O-])cc1Cl
2. O=C(O)C1CC(c2ccccc2)=NN1c1ccccc1 (configuration not stated)
3. CN(C)Cc1cc(N=Nc2ccc(Cl)cc2)ccc1OC(=O)c1ccccc1
4. CCCC(O)C1CC(C(C)C)CCC1C (configuration not stated)

Response given:
77
96
61
11

Hi! Can you tell me growth inhibition for each of these molecules?
1. O=[N+]([O-])c1cc(Cl)cnc1Br
2. Cc1cc(C(C)(C)C)c(OCCCN2CCOCC2)c(C(C)(C)C)c1
3. Cc1ccc2nc(-c3cccc([N+](=O)[O-])c3)oc(=O)c2c1

Response given:
-48
48
67

====

Would you kindly list growth inhibition for each of these compounds?
assay: NCI Yeast Anticancer Drug Screen. Data for the mlh1 rad18 strain (AID 175); conditions: S. cerevisiae mlh1 rad18 strain growth inhibition; at 50.0 µM; stronger effect = higher value
This is part of a sample that, as a whole, favours compounds with a hit. Of some 79,000 tested, about 15% had one in any assay. Activity calls are given as the source filed them. Cut-off read from the data, not from the text of the source: active = growth inhibition above about 70%; inactive = the rest.

• O=C(NCCCl)Sc1ccc(Cl)cc1 = 97.8% (active)
• O=C(O)C1CC(c2ccccc2)=NN1c1ccccc1 (configuration not stated) = 85.2% (active)
• O=C(O)c1cc2ccccc2c2c1C(=O)c1ccccc1-2 = 90% (active)
• Cc1nc2ccccc2nc1NNc1ccccc1 = 56.6% (inactive)
• CC(=O)Nc1ccc2c(c1)Cc1cc(N=C3C=CC(=O)O3)ccc1-2 = 0.7% (inactive)

State recorded growth inhibition for all listed compounds.
1. Cc1cccc(C(C)(C)C)c1NC(=O)C(C#N)C1=C(Cl)C(=O)c2ccccc2C1=O (configuration not stated)
2. Cc1ccc(Cl)cc1NC(=O)OCCN(C)C(=O)Nc1cc(Cl)ccc1C

Response given:
89.5% (active)
62% (inactive)

====

assay: NCI Yeast Anticancer Drug Screen. Data for the rad52 strain (AID 147);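 further: 0% = growth of vehicle-treated control cultures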; conditions: S. cerevisiae rad52 mutant growth inhibition; at 100.0 µM; stronger effect = higher value
The panel holds about 79,000 compounds, 15% with a hit somewhere; the sample as a whole holds those more often.
Assign growth inhibition to each entry below.
Give bare numbers, in %.

See these solved cases before continuing.
- Cc1nc2ccccc2nc1NNc1ccccc1: 24
- COC(=O)Nc1cn2ccc(C(Cl)=C(Cl)Cl)cc2n1: -16
- CC(C)(C)[Si](C)(C)OCC1CCC(n2cnc3c(NC(=O)c4ccccc4)ncnc32)O1 (centres undefined): -2

Look at each compound and report its growth inhibition.
1. Cc1ccccc1N=Cc1cc(Cl)ccc1O
2. CC1=C(SCc2ccccc2)C(=O)c2ccccc2C1=O

Response given:
1. 96
2. 90

For each of the compounds below, state growth inhibition.
1. Oc1cccc2cc(Cl)cnc12
2. Cc1cc(N(CCOS(C)(=O)=O)CCOS(C)(=O)=O)ccc1C=Nc1ccc(-c2csc(-c3ccccc3)n2)c(Cl)c1
3. Cc1c2cc[n+](Cc3ccc(I)cc3)cc2c(C)c2c1[nH]c1ccccc12
4. O=C(C[n+]1ccc2ccccc2c1)c1ccc2ccccc2c1
5. NCCNCCNc1ccc(NCCNCCN)c2c1C(=O)c1c(O)ccc(O)c1C2=O

Response given:
97
84
95
99
85

Hi team, please reply with growth inhibition for each item in this list.
1. O=c1ssc(=Nc2ccccc2)n1-c1ccccc1
2. CN(C)c1ccc2c(SCC(=O)OCC(=O)[C@@]3(O)CC[C@H]4[C@@H]5CCC6=CC(=O)C=C[C@]6(C)[C@H]5C(=O)C[C@@]43C)c3ccc(N(C)C)cc3nc2c1

Response given:
[62, 92]

For the 6 compounds below, give their growth inhibition values.
1. CC(O)=NC(Cc1ccc2ccccc2c1)C(O)=NC(Cc1ccc(Cl)cc1)C(O)=NC(Cc1c[nH]c2ccccc12)C(O)=NC(CO)C(O)=NC(Cc1ccc(O)cc1)C(O)=NC(CCCN=C(N)N)C(O)=NC(CC(C)C)C(O)=NC(CCCN=C(N)N)C(=O)N1CCCC1C(O)=NC(C)C(=N)O (centres undefined)
2. Cc1sc2ccc3ccccc3c2[n+]1C
3. Cc1ccc2c(c1)C1(SC(C)C(=O)N1c1ccc(Cl)cc1)C(=O)N2 (centres undefined)
4. CCCCCCCCCCCC1N=C(N)NC(CCCO)=C1C(=O)OC (centres undefined)
5. COc1cc(/C=C2\CCC/C(=C\c3ccc(O)c(OC)c3)C2=O)ccc1O
6. O=[N+]([O-])c1cc[n+]([O-])cc1

Response given:
16
94
99
99
4
98

# batch: return growth inhibition for each of the 6 compounds below
1. Cc1cc(C(C)(C)CC(C)(C)C)ccc1O
2. CC(C)(C)c1ccc(NS(=O)(=O)c2ccc(N)cc2)cc1
3. O=C(Oc1ccc2c(c1)CN(Cc1ccccc1)CO2)c1ccccc1
4. Cc1cc(O)c(C(C)C)cc1C1(c2cc(C(C)C)c(O)cc2C)OC(=O)c2ccccc21
5. CC(NCCN(C)C)C1CCC2C3CCc4cc(O)ccc4C3CCC12C (centres undefined)
6. CCC(C)(C)c1ccc(Oc2cccc(C(=O)O)c2)cc1

Response given:
1: 98; 2: 46; 3: 38; 4: 34; 5: 95; 6: 68

====

assay: NCI Yeast Anticancer Drug Screen. Data for the wt1 strain (AID 149);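 further: 0% = growth of vehicle-treated wt1 cultures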; conditions: S. cerevisiae wt1 strain (SPY 50644) growth inhibition; at 1.2 µM; stronger effect = higher value
The panel holds about 79,000 compounds, 15% with a hit somewhere; the sample as a whole holds those more often.
Exercise: for every item that follows, state its recorded growth inhibition.
Numbers only, in %.

A selection of reference data follows.
- O=C(NCCCNCCN1C(=O)c2cccc3cc([N+](=O)[O-])cc(c23)C1=O)c1cc(-c2ccccc2)nc2ccccc12: 0
- CCC(C)NC1=NCC(C)S1 (configuration not stated): -22
- Cc1ccc(S/C(=C\C(=O)O)c2ccccc2)cc1: -6
- CC12C(=O)OC(=O)C(c3ccccc31)c1ccccc12: 2
- O=C1C=C(Cl)C(=O)N1c1cccc(Cl)c1: 12

I would be grateful if you could provide growth inhibition for each of the following entries.
1. c1ccc(-c2cnc3ccccc3c2)cc1
2. CC(=O)ON=C1C=CC(=C(C#N)c2ccc(Cl)cc2)C=C1

Response given:
-7
0

====

experiment: NCI Yeast Anticancer Drug Screen. Data for the CLN2oe strain (AID 163);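 further: 0% = growth of vehicle-only control cultures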; conditions: S. cerevisiae CLN2oe strain, at 1.2 µM, stronger effect = higher value
Compounds without any hit were thinned out: in the full panel of roughly 79,000, 15% have a hit. Active and inactive are the calls of the source. Rule as the data show it: active = growth inhibition above about 70%; inactive = the rest.
measurement kind: growth inhibition

Solved cases (4 shown):
* Cc1nc(Nc2ccccc2[N+](=O)[O-])sc1C(=O)CC(=O)C(=O)Nc1c(C(C)C)cccc1C(C)C | 3% (inactive)
* CC(=O)OCC1OC2OC(=O)NC2C(OC(C)=O)C1OC(C)=O (configuration not stated) | -3% (inactive)
* CCCCc1nnc(NS(=O)(=O)c2ccc(C)cc2)s1 | 0% (inactive)
* CC1CC[C@]2(C(=O)O)CCC3(C)C(=CC(=O)C4[C@@]5(C)CCC(=O)C(C)(C)C5CC[C@]43C)[C@@H]2[C@H]1C (some centres not stated) | 1% (inactive)

Fill in growth inhibition for each of the 6 compounds listed.
1. O/N=C\c1c(O)ccc2ccccc12
2. COC(=O)C1(C)CCc2c(ccc3ccccc23)C1=O (configuration not stated)
3. CN(CCN(C)Cc1ccccc1)Cc1ccccc1
4. COc1ccc(C/C=N/Nc2ccc([N+](=O)[O-])cc2)cc1OC
5. CN1CCN(C(=O)/C=C/C(=O)c2ccccc2)CC1
6. CCCC/C([O-])=C1/C(=O)N(c2ccccc2)N=C1C.CCCC/C([O-])=C1/C(=O)N(c2ccccc2)N=C1C.[Cu+2]

Response given:
1. -6% (inactive)
2. -4% (inactive)
3. -12% (inactive)
4. 8% (inactive)
5. 3% (inactive)
6. -4% (inactive)
